Attribution: ChEMBL document CHEMBL5291721

AC50 values recorded for 5-hydroxytryptamine receptor 1A (Homo sapiens, UniProt P08908)

Previously resolved entries follow.
Query :: # assay system 5-hydroxytryptamine receptor 1A (Homo sapiens, UniProt P08908): give AC50 of Oc1ccccc1 [PHENOL]; note: assay procedure not described here
Result :: > 30 µM

Query :: # assay system 5-hydroxytryptamine receptor 1A (Homo sapiens, UniProt P08908): give AC50 of CCOC(=O)/C=C1\SC(N2CCCCC2)C(=O)N1C (stereo not drawn) [ETOZOLIN]; note: assay procedure not described here
Result :: > 30 µM

Query :: # assay system 5-hydroxytryptamine receptor 1A (Homo sapiens, UniProt P08908): give AC50 of CC(C)C[C@H]1C(=O)N2CCC[C@H]2[C@]2(O)O[C@](NC(=O)[C@@H]3C[C@@H]4c5cccc6[nH]cc(c56)C[C@H]4N(C)C3)(C(C)C)C(=O)N12 [DIHYDROERGOCRYPTINE]; note: assay procedure not described here
Result :: 0.0125 µM

---
Query :: # assay system 5-hydroxytryptamine receptor 1A (Homo sapiens, UniProt P08908): give AC50 of CC(=O)OCC1=C(C(=O)O)N2C(=O)[C@@H](NC(=O)[C@H](N)c3ccccc3)[C@H]2SC1 [CEPHALOGLYCIN]; note: assay procedure not described here
Result :: > 30 µM

Query :: # assay system 5-hydroxytryptamine receptor 1A (Homo sapiens, UniProt P08908): give AC50 of CCOc1ccc(Cc2cc([C@@H]3O[C@H](CO)[C@@H](O)[C@H](O)[C@H]3O)ccc2Cl)cc1 [DAPAGLIFLOZIN]; note: assay procedure not described here
Result :: > 30 µM

Query :: # assay system 5-hydroxytryptamine receptor 1A (Homo sapiens, UniProt P08908): give AC50 of C[N+](C)(C)CCO [CHOLINE]; note: assay procedure not described here
Result :: > 30 µM

Query :: # assay system 5-hydroxytryptamine receptor 1A (Homo sapiens, UniProt P08908): give AC50 of CN(C)CCN1C(=O)c2ccccc2N(C)c2ccccc21 [DIBENZEPIN]; note: assay procedure not described here
Result :: 0.306 µM

Query :: # assay system 5-hydroxytryptamine receptor 1A (Homo sapiens, UniProt P08908): give AC50 of CCCC1O[C@@H]2C[C@H]3[C@@H]4CCC5=CC(=O)C=C[C@]5(C)[C@H]4[C@@H](O)C[C@]3(C)[C@]2(C(=O)CO)O1 (stereo partly drawn) [BUDESONIDE]; note: assay procedure not described here
Result :: > 30 µM

Query :: # assay system 5-hydroxytryptamine receptor 1A (Homo sapiens, UniProt P08908): give AC50 of CC[N+]1(C)[C@@H]2CC(OC(=O)[C@H](CO)c3ccccc3)C[C@H]1[C@@H]1O[C@@H]12 (stereo partly drawn) [OXITROPIUM]; note: assay procedure not described here
Result :: > 30 µM

Query :: # assay system 5-hydroxytryptamine receptor 1A (Homo sapiens, UniProt P08908): give AC50 of O=c1[nH]c(=O)n([C@H]2C[C@H](O)[C@@H](CO)O2)cc1F [FLOXURIDINE]; note: assay procedure not described here
Result :: > 30 µM

Query :: # assay system 5-hydroxytryptamine receptor 1A (Homo sapiens, UniProt P08908): give AC50 of COc1ccc(C(=O)Nc2ccccc2CCC2CCCCN2C)cc1 (stereo not drawn) [ENCAINIDE]; note: assay procedure not described here
Result :: > 30 µM

Query :: # assay system 5-hydroxytryptamine receptor 1A (Homo sapiens, UniProt P08908): give AC50 of CC(C)(C)NC[C@H](O)COc1ccccc1C1CCCC1 [PENBUTOLOL]; note: assay procedure not described here
Result :: 0.0036 µM

Query :: # assay system 5-hydroxytryptamine receptor 1A (Homo sapiens, UniProt P08908): give AC50 of COC(c1ccccc1)(c1ccccc1)[C@H](Oc1nc(C)cc(C)n1)C(=O)O [AMBRISENTAN]; note: assay procedure not described here
Result :: > 30 µM

Query :: # assay system 5-hydroxytryptamine receptor 1A (Homo sapiens, UniProt P08908): give AC50 of O=C(O)c1cc(O)ccc1O [GENTISIC ACID]; note: assay procedure not described here
Result :: > 30 µM

Query :: # assay system 5-hydroxytryptamine receptor 1A (Homo sapiens, UniProt P08908): give AC50 of CC[C@@H](C(N)=O)N1CCCC1=O; note: assay procedure not described here
Result :: > 30 µM

Query :: # assay system 5-hydroxytryptamine receptor 1A (Homo sapiens, UniProt P08908): give AC50 of Cc1cc(C#N)cc(C)c1Oc1nc(Nc2ccc(C#N)cc2)nc(N)c1Br [ETRAVIRINE]; note: assay procedure not described here
Result :: > 30 µM

Query :: # assay system 5-hydroxytryptamine receptor 1A (Homo sapiens, UniProt P08908): give AC50 of O=C(Oc1ccc2c(c1)CCCN2C(=O)C(Cl)Cl)c1ccco1 [QUINFAMIDE]; note: assay procedure not described here
Result :: > 30 µM

Query :: # assay system 5-hydroxytryptamine receptor 1A (Homo sapiens, UniProt P08908): give AC50 of CC[C@]1(O)C[C@H]2CN(CCc3c([nH]c4ccccc34)[C@@](C(=O)OC)(c3cc4c(cc3OC)N(C=O)[C@H]3[C@@](O)(C(=O)OC)[C@H](OC(C)=O)[C@]5(CC)C=CCN6CC[C@]43[C@@H]65)C2)C1 [VINCRISTINE]; note: assay procedure not described here
Result :: > 30 µM
